Molecular target: PARP1 (PARP-1) (UniProt P09874 1-1014)
Sequence (P09874 whole entry): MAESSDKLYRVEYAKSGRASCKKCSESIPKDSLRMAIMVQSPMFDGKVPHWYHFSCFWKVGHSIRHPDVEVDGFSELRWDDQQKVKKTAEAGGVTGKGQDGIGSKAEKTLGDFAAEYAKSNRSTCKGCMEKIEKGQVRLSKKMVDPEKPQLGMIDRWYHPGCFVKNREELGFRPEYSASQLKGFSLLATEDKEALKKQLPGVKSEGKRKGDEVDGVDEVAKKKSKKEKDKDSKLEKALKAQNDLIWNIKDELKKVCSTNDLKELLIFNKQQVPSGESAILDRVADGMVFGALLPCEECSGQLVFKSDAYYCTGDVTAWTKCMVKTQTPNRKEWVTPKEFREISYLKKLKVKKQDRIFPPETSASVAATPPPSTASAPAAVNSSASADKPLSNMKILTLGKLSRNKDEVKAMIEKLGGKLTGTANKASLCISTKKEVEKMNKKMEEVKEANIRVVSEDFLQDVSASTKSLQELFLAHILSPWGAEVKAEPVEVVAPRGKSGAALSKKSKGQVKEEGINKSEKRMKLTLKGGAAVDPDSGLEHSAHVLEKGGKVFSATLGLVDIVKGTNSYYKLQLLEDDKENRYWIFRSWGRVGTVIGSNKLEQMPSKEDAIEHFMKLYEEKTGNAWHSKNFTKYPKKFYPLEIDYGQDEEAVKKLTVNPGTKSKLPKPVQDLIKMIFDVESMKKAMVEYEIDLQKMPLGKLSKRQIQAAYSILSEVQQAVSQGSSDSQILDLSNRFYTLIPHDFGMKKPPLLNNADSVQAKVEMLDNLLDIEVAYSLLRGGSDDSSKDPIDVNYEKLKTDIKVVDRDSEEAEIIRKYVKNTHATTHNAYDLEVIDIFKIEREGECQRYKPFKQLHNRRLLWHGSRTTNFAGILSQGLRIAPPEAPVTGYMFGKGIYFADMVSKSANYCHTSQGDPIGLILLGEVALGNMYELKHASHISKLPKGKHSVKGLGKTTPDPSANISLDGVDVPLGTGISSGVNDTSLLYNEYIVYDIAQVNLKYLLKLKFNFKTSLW
Experiment: ITC; 25 C, 5 mM Mg2+, no NAD+; dH -58.4 kcal/mol; Buffer RX: 25 mM Hepes pH 7.5, 140 mM KCl, 5 mM MgCl2, 5% glycerol, 1 mM BME; ITC at 25 C; EMSA incubated on ice then room temperature, 4-20% native PAGE in Tris-glycine at 0 C
Conditions: protein: recombinant; tags: His (Ni-NTA purified); self-annealed dumbbell, two hairpins, 3-nt gap
property_name: pKd
Convention used: pKd is expressed as -log10 of the molar concentration.

// query I am curious: what pKd value has been reported for d3ntgap (75-nt dumbbell with 3-nt gap) (structured_DNA) DNA: CTTTTCTGGTGAAAAGCTCGTCGGCAGCGCTTGAGCAGCGGCAGCTGGTGCTGCCGCTGCTCAAGCGCTGCCGAC ?
// result 7.44

Cited source for all entries: paper PMC7949115
